- procedure_summary: MHET released, HPLC; higher = more MHET released; extreme values may be limits of the assay
- recorded_conditions: PET substrate: aFilm; 70 °C; pH 7.5; 24 h
For each record, write down the corresponding MHET released.
State the value with its unit after it.

{"construct_sequence": "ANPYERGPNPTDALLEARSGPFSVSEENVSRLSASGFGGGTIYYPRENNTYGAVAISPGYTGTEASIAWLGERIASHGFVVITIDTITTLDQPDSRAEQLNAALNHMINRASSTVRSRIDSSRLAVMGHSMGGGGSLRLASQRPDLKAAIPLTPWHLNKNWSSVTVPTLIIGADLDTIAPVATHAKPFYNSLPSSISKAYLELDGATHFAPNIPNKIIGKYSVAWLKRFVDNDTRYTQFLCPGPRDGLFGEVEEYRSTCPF [TfCut2]", "result": "0 mM"}
{"construct_sequence": "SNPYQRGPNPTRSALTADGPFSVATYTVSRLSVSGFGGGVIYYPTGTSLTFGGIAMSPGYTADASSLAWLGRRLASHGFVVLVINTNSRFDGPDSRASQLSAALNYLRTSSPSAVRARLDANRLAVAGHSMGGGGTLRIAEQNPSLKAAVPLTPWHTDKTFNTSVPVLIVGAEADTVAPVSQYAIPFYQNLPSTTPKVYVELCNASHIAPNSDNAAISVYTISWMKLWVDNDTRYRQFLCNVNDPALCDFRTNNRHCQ [LCC-A2]", "result": "8.82 mM"}
{"construct_sequence": "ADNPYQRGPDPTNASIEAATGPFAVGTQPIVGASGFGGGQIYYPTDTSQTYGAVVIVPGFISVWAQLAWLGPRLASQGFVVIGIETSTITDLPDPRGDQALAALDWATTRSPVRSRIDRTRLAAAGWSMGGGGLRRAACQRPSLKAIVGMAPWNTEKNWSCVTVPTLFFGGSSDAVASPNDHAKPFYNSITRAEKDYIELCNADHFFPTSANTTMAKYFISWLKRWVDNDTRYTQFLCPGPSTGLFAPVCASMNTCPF [CaPETaseM9]", "result": "0 mM"}
{"construct_sequence": "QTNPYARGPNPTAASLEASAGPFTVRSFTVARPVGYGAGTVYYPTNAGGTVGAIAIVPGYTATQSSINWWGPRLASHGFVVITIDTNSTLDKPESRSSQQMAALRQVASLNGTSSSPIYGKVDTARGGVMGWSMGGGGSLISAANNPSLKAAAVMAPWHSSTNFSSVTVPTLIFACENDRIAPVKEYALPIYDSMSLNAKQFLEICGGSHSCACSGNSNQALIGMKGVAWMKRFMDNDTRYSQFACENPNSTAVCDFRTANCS [HotPETase]", "result": "0.198 mM"}

Hi team, please reply with MHET released for each item in this list.
1. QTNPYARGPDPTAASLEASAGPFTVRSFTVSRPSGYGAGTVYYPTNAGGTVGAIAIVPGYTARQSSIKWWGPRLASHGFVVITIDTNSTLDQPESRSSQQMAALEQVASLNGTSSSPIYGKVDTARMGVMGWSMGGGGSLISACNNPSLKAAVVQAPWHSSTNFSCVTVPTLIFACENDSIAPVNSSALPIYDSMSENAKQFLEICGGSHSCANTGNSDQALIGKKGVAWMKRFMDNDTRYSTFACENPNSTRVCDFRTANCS [Z1-PETase]
2. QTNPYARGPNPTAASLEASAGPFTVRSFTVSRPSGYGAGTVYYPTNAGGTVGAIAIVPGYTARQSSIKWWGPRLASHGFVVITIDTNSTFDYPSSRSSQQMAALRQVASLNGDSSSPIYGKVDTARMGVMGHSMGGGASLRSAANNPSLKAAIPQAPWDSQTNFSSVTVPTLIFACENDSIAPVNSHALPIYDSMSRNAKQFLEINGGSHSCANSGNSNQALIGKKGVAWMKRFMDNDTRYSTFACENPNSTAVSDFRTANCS [DuraPETase]
3. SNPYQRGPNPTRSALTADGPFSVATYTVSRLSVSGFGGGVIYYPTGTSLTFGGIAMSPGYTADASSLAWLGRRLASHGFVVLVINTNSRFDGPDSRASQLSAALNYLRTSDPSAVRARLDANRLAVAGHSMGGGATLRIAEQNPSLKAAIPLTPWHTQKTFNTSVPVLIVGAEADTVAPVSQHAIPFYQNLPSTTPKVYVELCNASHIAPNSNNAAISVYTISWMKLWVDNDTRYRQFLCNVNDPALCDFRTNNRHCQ [LCC-ICCG DAQI]

0.0119 mM
0.00907 mM
4.52 mM
